target: Small conductance calcium-activated potassium channel protein 3 (Rattus norvegicus); test: Inhibition of recombinant rat SK3 expressed in HEK293T cells assessed as decrease in channel current amplitude at 0 mV holding potential at 10 uM measured for 3 mins by patch clamp assay relative to control; type: cell-based; details: HEK-293T
recorded_endpoint: inhibition
Quote the value and follow it with the unit of measurement.

// worked examples, inhibition included
compound	recorded_result
CCCCCCCCCCCCCCCCOCC(COP(=O)(O)O[C@H]1O[C@H](CO)[C@@H](O[C@H]2O[C@H](CO)[C@@H](O)[C@H](O)[C@H]2O)[C@H](O)[C@H]1O)OC.CCN(CC)CC (stereo not given in full)	70.8%
CCCCCCCCCCCCCCCCOCC(COP(=O)(O)OC1O[C@H](CO)[C@@H](O[C@H]2O[C@H](CO)[C@@H](O)[C@H](O)[C@H]2O)[C@H](O)[C@H]1O)OC.CCN(CC)CC (stereo not given in full)	60%
CCCCCCCCCCCCCCCCOCC(CO[C@H]1O[C@H](CO)[C@@H](O[C@@H]2O[C@H](CO)[C@H](O)[C@H](O)[C@H]2O)[C@H](O)[C@H]1O)OC (stereo not given in full)	73.2%
CCCCCCCCCCCCCCCCOCC(COP(=O)(O)OC1O[C@H](CO)[C@@H](O[C@@H]2O[C@H](CO)[C@H](O)[C@H](O)[C@H]2O)[C@H](O)[C@H]1O)OC.CCN(CC)CC (stereo not given in full)	69.2%

Please report inhibition with Small conductance calcium-activated potassium channel protein 3 (Rattus norvegicus) for item CCCCCCCCCCCCCCCCOCC(COP(=O)(O)OC1O[C@H](CO[C@H]2O[C@H](CO)[C@H](O)[C@H](O)[C@H]2O)[C@@H](O)[C@H](O)[C@H]1O)OC.CCN(CC)CC (stereo not given in full) .
65.5%
